# tested on: Human P45017α (Homo sapiens, UniProt P05093)
# Construct: Human testicular microsomes were prepared from human testes; from tissue; host or cells: human testes (untreated prostatic cancer patients undergoing orchidectomy), microsomal fraction
# assay protocol: Inhibition of human testicular microsomal P45017α (lyase activity, release of C3H3COOH from [21-3H3]-17α-hydroxypregnenolone)
# Assay type: biochemical
Reported IC50 values for the following molecules.
Answer format: number, then unit.

| molecule | IC50 |
| --- | --- |
| C[C@]12CC[C@H]3[C@@H](CCC4=CC(=O)CC[C@@]43C)[C@@H]1CC[C@@H]2n1ccnc1 [Compound 14] | 36 nM |
| C[C@]12CC[C@H]3[C@@H](CC=C4C[C@@H](O)CC[C@@]43C)[C@@H]1CC[C@@H]2n1ccnc1 [Compound 13] | 62 nM |

Req: Identify the measured IC50 of C[C@]12CC[C@H](O)CC1=CC[C@@H]1[C@@H]2CC[C@]2(C)C(n3ccnn3)=CC[C@@H]12 [Compound 20] for Human P45017α (Homo sapiens, UniProt P05093).
Resp: 13 nM

----------
# tested on: Human P45017α (Homo sapiens)
# Construct: Human testicular microsomes were prepared from human testes; from tissue; host or cells: human testes (untreated prostatic cancer patients undergoing orchidectomy), microsomal fraction
# assay protocol: Inhibition of human testicular microsomal P45017α (lyase activity, release of C3H3COOH from [21-3H3]-17α-hydroxypregnenolone)
# Format: biochemical
# conditions used: human testicular microsomes; mean ± SDM of at least two experiments; read-out: Human P45017α IC50
recorded endpoint: pIC50
In plain terms, pIC50 is the concentration in mol/L turned into minus its base-10 logarithm.

| molecular string | recorded endpoint | recorded number |
| --- | --- | --- |
| C[C@]12CC[C@H]3[C@@H](CC=C4C[C@@H](O)CC[C@@]43C)[C@@H]1CC[C@@H]2n1cncn1 | pIC50 | 6.66 |

Please examine the following record next.
Req: Fill in the blank: the reported pIC50 of C[C@]12CCC(=O)C=C1CC[C@@H]1[C@@H]2CC[C@]2(C)C(n3cncn3)=CC[C@@H]12 is ____.
Resp: 7.26

----------
Reported pIC50 values for the following compounds.
# tested on: Human P45017α (Homo sapiens, UniProt P05093)
# Construct: Human testicular microsomes were prepared from human testes; from tissue; host or cells: human testes (untreated prostatic cancer patients undergoing orchidectomy), microsomal fraction
# Sequence (P05093 1-508): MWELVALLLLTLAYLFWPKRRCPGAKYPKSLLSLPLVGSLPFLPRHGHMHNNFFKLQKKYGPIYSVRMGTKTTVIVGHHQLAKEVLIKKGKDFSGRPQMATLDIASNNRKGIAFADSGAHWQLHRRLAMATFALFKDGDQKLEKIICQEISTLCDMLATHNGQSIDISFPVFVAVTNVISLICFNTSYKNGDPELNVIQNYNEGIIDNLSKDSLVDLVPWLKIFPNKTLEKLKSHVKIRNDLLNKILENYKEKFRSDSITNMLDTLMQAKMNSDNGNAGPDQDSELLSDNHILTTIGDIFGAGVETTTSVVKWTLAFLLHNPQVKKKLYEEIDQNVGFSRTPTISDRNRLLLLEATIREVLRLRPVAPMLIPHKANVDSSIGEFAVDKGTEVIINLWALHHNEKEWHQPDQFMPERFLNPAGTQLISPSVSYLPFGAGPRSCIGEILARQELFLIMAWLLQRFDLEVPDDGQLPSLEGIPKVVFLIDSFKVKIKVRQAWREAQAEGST
# assay protocol: Inhibition of human testicular microsomal P45017α (lyase activity, release of C3H3COOH from [21-3H3]-17α-hydroxypregnenolone)
# Assay type: biochemical
In plain terms, pIC50 is the concentration in mol/L turned into minus its base-10 logarithm.

Recorded results for 3 compounds are shown here.
| molecular string | recorded endpoint | recorded number |
| --- | --- | --- |
| C[C@]12CC[C@H](O)CC1=CC[C@@H]1[C@@H]2CC[C@]2(C)C(n3cncn3)=CC[C@@H]12 | pIC50 | 7.05 |
| C[C@]12CCC(=O)C=C1CC[C@@H]1[C@@H]2CC[C@]2(C)C(n3ccnn3)=CC[C@@H]12 | pIC50 | 7.72 |
| C[C@]12CC[C@H](O)CC1=CC[C@@H]1[C@@H]2CC[C@]2(C)C(n3ccnc3)=CC[C@@H]12 | pIC50 | 8.10 |

Please examine the following record next.
Req: Fill in the blank: the reported pIC50 of C[C@]12CCC(=O)C=C1CC[C@@H]1[C@@H]2CC[C@]2(C)C(n3ccnc3)=CC[C@@H]12 is ____.
Resp: 8.15

Reference source for all entries: patent US6444683B2
